Each entry below carries its recorded binding response of second antibody (nm).
# EXPERIMENTAL_TARGET: T1, human GFRα3 expressed with a C-terminal myc-myc-hexahistidine tag (human, UniProt O60609 32-374, biotinylated (sites not given) in ELISA format 2 and in the Octet cross-competition; not in SPR)
# T1 construct: also called hGFRα3-mmh; hGFRα3-mmH
# T1 sequence (O60609 other isoform, or with tags, fused parts or gaps limits assumed): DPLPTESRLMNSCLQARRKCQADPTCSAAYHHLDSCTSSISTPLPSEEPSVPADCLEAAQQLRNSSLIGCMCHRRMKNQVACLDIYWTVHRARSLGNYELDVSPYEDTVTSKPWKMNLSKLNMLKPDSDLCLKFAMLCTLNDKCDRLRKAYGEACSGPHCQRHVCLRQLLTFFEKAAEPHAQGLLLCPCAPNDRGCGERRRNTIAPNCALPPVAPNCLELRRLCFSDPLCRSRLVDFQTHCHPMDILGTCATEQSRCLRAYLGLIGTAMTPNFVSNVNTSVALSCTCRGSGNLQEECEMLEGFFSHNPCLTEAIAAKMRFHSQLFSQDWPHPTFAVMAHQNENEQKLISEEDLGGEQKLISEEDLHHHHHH
# MEASUREMENT_PROTOCOL: Octet cross-competition; biotin-hGFRα3-mmH pre-saturated with first antibody H4H2236N3

[
  {
    "BINDER": "H4H2243N2 (antibody, human IgG4, V domains shown, human IgG4 Fc (H4H)) VH: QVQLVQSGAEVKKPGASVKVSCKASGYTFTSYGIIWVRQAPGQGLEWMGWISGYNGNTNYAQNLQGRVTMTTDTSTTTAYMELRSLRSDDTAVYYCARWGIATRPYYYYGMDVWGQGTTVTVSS VL: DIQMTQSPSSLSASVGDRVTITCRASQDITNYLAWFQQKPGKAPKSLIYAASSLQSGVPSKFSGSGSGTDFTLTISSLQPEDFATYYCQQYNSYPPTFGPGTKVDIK",
    "binding response of second antibody (nm)": 0.02
  },
  {
    "BINDER": "H4H2357S (antibody, human IgG4, V domains shown, human IgG4 Fc (H4H)) VH: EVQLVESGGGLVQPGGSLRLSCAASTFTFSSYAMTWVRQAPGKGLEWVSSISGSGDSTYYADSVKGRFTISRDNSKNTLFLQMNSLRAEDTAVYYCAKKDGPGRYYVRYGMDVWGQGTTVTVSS VL: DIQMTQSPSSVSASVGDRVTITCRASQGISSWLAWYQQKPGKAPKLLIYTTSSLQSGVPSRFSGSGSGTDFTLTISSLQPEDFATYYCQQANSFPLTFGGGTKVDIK",
    "binding response of second antibody (nm)": 0.04
  },
  {
    "BINDER": "H4H2295S (antibody, human IgG4, V domains shown, human IgG4 Fc (H4H)) VH: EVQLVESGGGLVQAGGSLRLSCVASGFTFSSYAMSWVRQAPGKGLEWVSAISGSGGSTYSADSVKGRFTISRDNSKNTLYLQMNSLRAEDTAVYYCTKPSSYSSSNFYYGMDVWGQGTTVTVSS VL: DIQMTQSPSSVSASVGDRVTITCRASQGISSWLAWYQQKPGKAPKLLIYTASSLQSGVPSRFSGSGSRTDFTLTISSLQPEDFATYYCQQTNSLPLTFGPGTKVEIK",
    "binding response of second antibody (nm)": 0.03
  },
  {
    "BINDER": "H4H2291S (antibody, human IgG4, V domains shown, human IgG4 Fc (H4H)) VH: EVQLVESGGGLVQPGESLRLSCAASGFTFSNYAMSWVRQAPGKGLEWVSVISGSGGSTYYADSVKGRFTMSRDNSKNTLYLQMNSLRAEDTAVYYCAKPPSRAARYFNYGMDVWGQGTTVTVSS VL: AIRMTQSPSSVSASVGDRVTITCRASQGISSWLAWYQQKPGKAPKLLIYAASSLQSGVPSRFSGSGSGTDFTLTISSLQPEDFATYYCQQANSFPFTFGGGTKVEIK",
    "binding response of second antibody (nm)": 0.06
  }
]
